pIC50 reference
Target: UniProtKB P35372
Sequence (P35372 whole entry): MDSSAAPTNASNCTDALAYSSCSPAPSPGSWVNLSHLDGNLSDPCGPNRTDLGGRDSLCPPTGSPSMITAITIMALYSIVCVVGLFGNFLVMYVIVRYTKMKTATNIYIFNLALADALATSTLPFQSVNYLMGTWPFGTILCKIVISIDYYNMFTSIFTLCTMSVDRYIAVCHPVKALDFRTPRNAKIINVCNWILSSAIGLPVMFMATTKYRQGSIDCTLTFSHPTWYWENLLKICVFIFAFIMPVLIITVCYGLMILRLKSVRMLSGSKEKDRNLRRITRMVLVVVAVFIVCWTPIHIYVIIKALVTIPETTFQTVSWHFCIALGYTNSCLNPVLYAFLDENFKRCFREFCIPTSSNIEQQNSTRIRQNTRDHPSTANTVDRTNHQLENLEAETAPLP
Test: inhibition of agonist (loperamide)-stimulated [35S]GTPγS binding
Conditions: receptor not given; mu opioid receptor from context; read-out: in vitro antagonist activity (IC50)
Interpret pIC50 as the negative base-10 log of the concentration measured in mol/L.

# Compound, pIC50
rows = [
    ("C[C@H]1CN(C[C@H](Cc2ccccc2)C(=O)NCC(=O)O)CC[C@@]1(C)c1cccc(C(N)=O)c1", 8.52),
]

Field: next compound
Problem: Param item = C[C@H]1CN(CC(Cc2ccccc2)C(=O)NCC(=O)O)CC[C@@]1(C)c1cccc(C(=O)O)c1 (stereo in doubt) ; retrieve measured pIC50.
Solution: 8.47

All values here come from patent US8404693B2.
